meta.source: patent US7381705B2

# Test system: HCV pseudotype (HIV core proteins, HCV E1 and E2 of strain H77)
# cond: 25 μM
propertyMeasured: Percent inhibition (%)
The reply should contain only the number, in %.

Lab note: CC(C)C[C@H](NC(=O)[C@H](CC(C)C)NC(=O)[C@H](CC(C)C)NC(=O)[C@@H]1CCCN1C(=O)[C@H](CO)NC(=O)[C@H](CC(C)C)NC(=O)[C@H](CCC(=O)O)NC(=O)[C@H](CO)NC(=O)[C@H](CCCNC(=N)N)NC(=O)[C@H](CC(=O)O)NC(=O)[C@H](CCCNC(=N)N)NC(=O)[C@H](CC(=O)O)NC(=O)[C@H](CCC(=O)O)NC(=O)[C@H](CC(C)C)NC(=O)[C@H](CC(N)=O)NC(=O)[C@@H](N)CS)C(=O)N[C@@H](CO)C(=O)N[C@H](C(=O)O)[C@@H](C)O [compound 113, CNLEDRDRSELSPLLLST] gave Percent inhibition of −27.3

----------
# System: HCV pseudotype (HIV core proteins, HCV E1 and E2 of strain H77)
# cond: HCV J4 1b E2 peptides at ~25 μM; Table 8; controls as in Table 7
Ends that are not written are not given here.
Recorded Luciferase units for the following sequences

Consider the worked cases shown below.
{"primarySequence": "PVYCFTPSPVVVGTTDRS [compound 94, PVYCFTPSPVVVGTTDRS]", "Luciferase units": "311,736 luciferase units (lumens)"}
{"primarySequence": "TKTCGGPPCNIGGVGNRT [compound 101]", "Luciferase units": "502,096 luciferase units (lumens)"}
{"primarySequence": "SPVVVGTTDRSGVPTYSW [compound 95, SPVVVGTTDRSGVPTYSW]", "Luciferase units": "538,110 luciferase units (lumens)"}
{"primarySequence": "AFVSFAIKWEYILLLFLL [compound 119, AFVSFAIKWEYILLLFLL]", "Luciferase units": "69,220 luciferase units (lumens)"}
{"primarySequence": "AGVDGETHTTGRVAGHTT [compound 54, AGVDGETHTTGRVAGHTT]", "Luciferase units": "372,393 luciferase units (lumens)"}
{"primarySequence": "TDRSGVPTYSWGENETDV [compound 96, TDRSGVPTYSWGENETDV]", "Luciferase units": "544,596 luciferase units (lumens)"}
{"primarySequence": "QILPCAFTTLPALSTGLI [compound 116, QILPCAFTTLPALSTGLI]", "Luciferase units": "394,096 luciferase units (lumens)"}
{"primarySequence": "LLSTTEWQILPCAFTTLP [compound 115, LLSTTEWQILPCAFTTLP]", "Luciferase units": "475,713 luciferase units (lumens)"}

Item: LFLLLADARVCACLWMML [compound 120] | System: HCV pseudotype (HIV core proteins, HCV E1 and E2 of strain H77) | Luciferase units: 463,243 luciferase units (lumens)

For GNRILICPTDCFRKHPEA [compound 103] on HCV pseudotype (HIV core proteins, HCV E1 and E2 of strain H77), measured Luciferase units was 305,690 luciferase units (lumens)

Reading of Luciferase units for SSGCPERMASCRPIDWFA [compound 87] with HCV pseudotype (HIV core proteins, HCV E1 and E2 of strain H77): 399,700 luciferase units (lumens)

----------
# System: HCV pseudotype (HIV core proteins, HCV E1 and E2 of strain H77)
# cond: HCV J4 1b E2 peptides at ~25 μM; Table 8; controls as in Table 7
Ends that are not written are not given here.
propertyMeasured: Luciferase units

Solved entries (count: 2):
{"primarySequence": "PNSSDQRPYCWHYAPRPC [compound 90]", "measuredTarget": "HCV pseudotype (HIV core proteins, HCV E1 and E2 of strain H77)", "Luciferase units": "423,326 luciferase units (lumens)"}
{"primarySequence": "HPEATYTKCGSGPWLTPR [compound 105, HPEATYTKCGSGPWLTPR]", "measuredTarget": "HCV pseudotype (HIV core proteins, HCV E1 and E2 of strain H77)", "Luciferase units": "552,170 luciferase units (lumens)"}

Would you kindly look at the next entry?
GET /value?item= TTLPALSTGLIHLHQNIV [compound 117, TTLPALSTGLIHLHQNIV] &field=Luciferase units returns 359,236 luciferase units (lumens)

----------
Let's look at some sequences and their measured Luciferase units.
# Tested on: HCV pseudotype (HIV core proteins, HCV E1 and E2 of strain H77)
# cond: HCV H77 1a E2 peptides at ~25 μM; Table 7; virus alone 448,123
Ends that are not written are not given here.

The following sequences have reported results that may help.
{"primarySequence": "ITPRCMVDYPYRLWHYPC [compound 31]", "testValue": "419,263 luciferase units (lumens)"}
{"primarySequence": "HVTGGSAGRTTAGLVGLL [peptide 2, HVTGGSAGRTTAGLVGLL]", "testValue": "447,336 luciferase units (lumens)"}

Now for the sequence whose Luciferase units we want.
I looked up GPISYANGSGLDERPYCW [compound 13, GPISYANGSGLDERPYCW] and its Luciferase units for HCV pseudotype (HIV core proteins, HCV E1 and E2 of strain H77) was 313,323 luciferase units (lumens)

----------
# Tested on: HCV pseudotype (HIV core proteins, HCV E1 and E2 of strain H77)
# cond: 25 μM
Ends that are not written are not given here.
# key: entry, value: Percent inhibition
Hi, when you answer, please include the unit after the number. Thanks!

{"primarySequence": "KWEYVVLLFLLLADARVC [compound 47, KWEYVVLLFLLLADARVC]", "testValue": "56.4%"}

Percent inhibition recorded for this sequence, AKQNIQLINTNGSWHINS [peptide 5, AKQNIQLINTNGSWHINS] , is 89.3%

Consider RSELSPLLLSTTQWQVLP [compound 39, RSELSPLLLSTTQWQVLP] . Its measured Percent inhibition is 11.6%

Looking up HYPCTLNFSIFKVRMYVG [compound 109, HYPCTLNFSIFKVRMYVG] , I found its Percent inhibition recorded as 79.4%

Lab book: Percent inhibition of LASCRRLTDFAQGWGPIS [compound 11, LASCRRLTDFAQGWGPIS] noted as 19.6%

SPVVVGTTDRSGAPTYSW [compound 19, SPVVVGTTDRSGAPTYSW] has a reported Percent inhibition of 32.7%

So, HVTGGSAGRTTAGLVGLL [peptide 2, HVTGGSAGRTTAGLVGLL] ? Its Percent inhibition was 0.2%

Data point: LFLLLADARVCACLWMML [compound 120] ; Percent inhibition = −3.4%

----------
# Test system: HCV pseudotype (HIV core proteins, HCV E1 and E2 of strain H77)
# cond: 25 μM
Peptide text beside a SMILES is read from it.
propertyMeasured: Percent inhibition (%)
Write the value in % as a bare number.

Record excerpt, results attached:
{"compound": "CC[C@H](C)[C@H](NC(=O)[C@@H](N)Cc1c[nH]cn1)C(=O)N[C@@H](CC(N)=O)C(=O)N[C@@H](CCCNC(=N)N)C(=O)N[C@H](C(=O)N[C@@H](C)C(=O)N[C@@H](CC(C)C)C(=O)N[C@@H](CC(N)=O)C(=O)N[C@@H](CS)C(=O)N[C@@H](CC(N)=O)C(=O)N[C@@H](CC(=O)O)C(=O)N[C@@H](CO)C(=O)N[C@@H](CC(C)C)C(=O)N[C@@H](CCC(N)=O)C(=O)N[C@H](C(=O)NCC(=O)N[C@@H](Cc1ccccc1)C(=O)N[C@@H](Cc1ccccc1)C(=O)O)[C@@H](C)O)[C@@H](C)O", "propertyMeasured": "Percent inhibition", "testValue": 12.5}
{"compound": "CC[C@H](C)[C@H](NC(=O)CNC(=O)[C@H](CS)NC(=O)[C@@H]1CCCN1C(=O)[C@H](CCCNC(=N)N)NC(=O)[C@@H]1CCCN1)C(=O)N[C@H](C(=O)N1CCC[C@H]1C(=O)N[C@@H](C)C(=O)N[C@@H](CCCCN)C(=O)N[C@@H](CO)C(=O)N[C@H](C(=O)N[C@@H](CS)C(=O)NCC(=O)N1CCC[C@H]1C(=O)N[C@H](C(=O)N[C@@H](Cc1ccc(O)cc1)C(=O)N[C@@H](CS)C(=O)O)C(C)C)C(C)C)C(C)C [compound 16, PRPCGIVPAKSVCGPVYC] (H-PRPCGIVPAKSVCGPVYC-OH; N-terminus and C-terminus assumed)", "propertyMeasured": "Percent inhibition", "testValue": 10.0}

Could you now look at the following compound, please?
Record CC(C)[C@H](NC(=O)CNC(=O)[C@H](CS)NC(=O)[C@@H]1CCCN1C(=O)[C@H](CCCNC(=N)N)NC(=O)[C@@H]1CCCN1)C(=O)N[C@H](C(=O)N1CCC[C@H]1C(=O)N[C@@H](C)C(=O)N[C@@H](CO)C(=O)N[C@@H](CCC(N)=O)C(=O)N[C@H](C(=O)N[C@@H](CS)C(=O)NCC(=O)N1CCC[C@H]1C(=O)N[C@H](C(=O)N[C@@H](Cc1ccc(O)cc1)C(=O)N[C@@H](CS)C(=O)O)C(C)C)C(C)C)C(C)C [compound 92, PRPCGVVPASQVCGPVYC] (H-PRPCGVVPASQVCGPVYC-OH; N-terminus and C-terminus assumed) . Reported Percent inhibition: 16.9
